Reference source: PubChem BioAssay (NCI)

System: HCT-15 colon
Experiment: NCI tumour cell line growth inhibition, 48 h
// values below are reported TGI
QUANTITY_NAME: TGI

>>> print(df.to_string())
                                    molecule  reported_result
 0    N=C(N)SCc1ccc2c(c1)S(=O)(=O)c1ccccc1O2          87.9 µM
 1  CCCCn1c(=O)[nH]c(N)c([C@@H]2c3c([nH]c(=O)n(CCCC)c3=O)Oc3ccc4ccccc4c32)c1=O          3.41 µM
 2  CCC(=C(c1ccc(OCCN2CCCCC2)cc1)c1ccc(OCCN2CCCCC2)cc1)c1ccc(Cl)cc1        > 16.7 µM
 3  Cc1ccc(S(=O)c2ccccc2[N+](=O)[O-])cc1 (configuration not stated)         > 100 µM
 4        CCN(CC)CC(=O)NC1c2ccccc2Oc2ccccc21         > 100 µM
 5  C=CCN1C(=O)CC2[C@@H]3CCc4cc(O)ccc4C3CC[C@]2(C)C1=O (some centres not stated)          > 10 µM
 6          CC(C)OC(=O)NCCn1cc(-c2ccccc2)nn1         > 100 µM
 7                        COC(=NC(C)C)NC(C)C         > 100 µM
 8  CNC(=O)Oc1cc(C(C)C)ccc1Sc1ccc(C(C)C)cc1OC(=O)NC          16.1 µM
 9    COc1ccc2c(O)c(Oc3ccc(Cl)cc3)c(=O)oc2c1         > 100 µM
10  Cc1nnc2n1N=C(c1cc(F)c(Cl)cc1Cl)/C(=C/c1ccc(-c3ccc([N+](=O)[O-])cc3)o1)S2         > 100 µM
11  O=C1c2cc(Br)ccc2-c2ccc3c4ccc5c6c(ccc(c7ccc1c2c73)c64)C(=O)c1cc(Br)ccc1-5         > 100 µM
12                           Sc1cccc2cccnc12          14.4 µM
13  COC(=O)/C=C1\SC2(OC1=Nc1ccccc1)C1CC3CC(C1)CC2C3 (configuration not stated)         > 100 µM
14                O=c1[nH]c2ccccc2n1C1CCNCC1         > 100 µM
15  Cc1c(C(Cc2ccccc2N(C)C(=O)/C=C\C(=O)O)c2c[nH]c3ccccc23)c2ccccc2n1C (configuration not stated)          29.3 µM
16                   Cc1cn2cc(-c3cccs3)nc2s1         > 100 µM
17  CC1CCCCCC(=O)c2c(O)cc(O)cc2CC(=O)O1 (configuration not stated)         > 100 µM
18  CC(C)=CCC[C@@H](C)[C@H]1CC[C@@]2(C)[C@@H]3CC[C@H]4C(C)(C)[C@@H](O)CC[C@@]45C[C@@]35CC[C@]12C         > 100 µM
19   CCOC(=O)c1nc2ccccc2nc1Oc1cc(OC)cc(OC)c1         > 100 µM
20  CCNC1=C(NC(=O)c2ccc(F)cc2)C(=O)c2ccccc2C1=O         > 100 µM
21  Cc1cccc(Nc2nc3ccccc3nc2NS(=O)(=O)c2ccc(N)cc2)c1         > 100 µM

* * *

Test system: T-47D breast
Assay: NCI tumour cell line growth inhibition, 48 h
// values below are reported GI50
QUANTITY_NAME: GI50

>>> print(df.to_string())
                                   compound  reported_result
0  COC(=O)c1c2c(c(C)[n+]([O-])c1C)C(=O)C(NCc1ccc(OC)cc1)=CC2=O          2.12 µM
1   Cn1cc(C2=C(c3ccsc3)C(=O)NC2=O)c2ccccc21          7.97 µM
2  CN(C)CCNC(=O)c1cc2c3cc(Cl)ccc3[nH]c2c2ncccc12           3.8 µM
3                O=c1[nH]c2ccccc2n1C1CCNCC1         > 100 µM
4            O=C1C=C(Nc2ccccc2)c2ccccc2C1=O          3.17 µM
5  CCCCn1c(=O)[nH]c(N)c([C@@H]2c3c([nH]c(=O)n(CCCC)c3=O)Oc3ccc4ccccc4c32)c1=O          10.7 µM
6  N#CC1=C(N)Oc2c(sc3c(Br)cccc23)C1c1ccc([N+](=O)[O-])cc1 (stereo not given)          0.84 µM
7  O=C(O)c1ccc(N(/C=C/C(=O)C(F)(F)F)Cc2ccc(Cl)cc2)cc1          28.5 µM
8  C[C@@H]1CN2[C@H]3[C@@H]1CC[C@]31CCC(=O)O[C@]1(C)[C@H]1CC[C@H]3CCC=C3[C@@H]12          > 30 µM
9  CCOC(=O)c1noc2c1CCc1c-2cn(Cc2ccc(OC)cc2)c1-c1cc(OC)c(OC)c(OC)c1         > 100 µM

* * *

Tested on: K-562 leukemia
Experiment: NCI tumour cell line growth inhibition, 48 h
Where a SMILES comes first, the peptide text is derived from it. Bridges are numbered along the chain shown (N, C = ends). The star is where a group is joined. Cbz = O=C(OCc1ccccc1)*

COMPOUND	TGI
COC(=O)NC(=O)NC(Cc1ccccc1)NC(=O)OCc1ccccc1 (stereo not given)	> 100 µM
Nc1ccccc1N	> 100 µM
CCOc1ccc(N(C)c2ccc(/C=C/C3=[N+](C)c4ccccc4C3(C)C)cc2)cc1	10.3 µM
CC(=O)C1(O)CC2(c3ccccc3)C(=O)C1(c1ccccc1)C(c1ccccc1)=C2c1ccccc1 (stereo not given)	> 100 µM
CNC(=O)C1CCCCNC(=O)CCC(NC(=O)OCc2ccccc2)C(=O)N1 (stereo not drawn) (Cbz-Glu-Lys-NHMe; lactam 1-2; configuration not given here)	> 100 µM
COC(=O)/C=C1\SC2(OC1=Nc1ccccc1)C1CC3CC(C1)CC2C3 (stereo not given)	> 100 µM
N=C(N)SCc1ccc2c(c1)S(=O)(=O)c1ccccc1O2	> 100 µM
COc1ccc2c(c1)/C(=C/c1c(O)[nH]c(=S)[nH]c1=O)C=N2	> 100 µM
CC(C)OC(=O)NCCn1cc(-c2ccccc2)nn1	> 100 µM
CC(C)(CN1CCCCC1)C(=O)/C=C/c1ccccc1	24.9 µM
CCN(CC)C(=O)CCn1ccc(=O)[nH]c1=O	> 100 µM
CN(C)c1cccc(-c2cc(=S)c3cc4c(cc3[nH]2)OCO4)c1	> 100 µM
CN(Cc1cnc2nc(N)nc(N)c2n1)c1ccc(C(=O)NCCCS(=O)(=O)O)cc1	> 100 µM
Cc1ccc(S(=O)c2ccccc2[N+](=O)[O-])cc1 (stereo not given)	> 100 µM
CC(C)(C)[Si](C)(C)OCC1OC(n2cnc3c(N)ncnc32)C2OC(=S)OC12 (stereo not given)	> 100 µM
NS(=O)(=O)c1ccc(NC(=S)NC(=O)Nc2ccc(Cl)c(Cl)c2)cc1	> 82.6 µM
CCOC(=O)CC1=N/C(=N/C(=N)N[N+](=O)[O-])SC1	> 100 µM
O=C1Cc2c(-c3cccs3)cc(-c3ccccc3)nc2-c2ccccc2N1	> 100 µM
C=C(CO)C(=O)OC1CC(=C)C2CC(O)C(C)C2C2OC(=O)C(=C)C12 (stereo not given)	82.2 µM
Cc1c(Cl)cccc1C(=O)Nc1nc2c(s1)CN(C(=O)Nc1cccc(C(F)(F)F)c1)CC2	> 50 µM
COC(=O)C(=O)C(C#N)c1nc2ccccc2s1 (stereo not given)	> 100 µM
NC(N)NCCCc1cn2c(n1)C1CCCN1C(=O)C2Cc1ccccc1 (stereo not given)	> 100 µM
O=C([CH-]C(=O)c1ccccc1)c1ccccc1.O=C([CH-]C(=O)c1ccccc1)c1ccccc1.O=C([CH-]C(=O)c1ccccc1)c1ccccc1.[Ga+3]	> 100 µM
O=C(c1ccc2ccccc2c1)C1(I)S(=O)(=O)OCCOS1(=O)=O	> 100 µM
CC(=O)OCC1OC(n2c3c(c(-c4ccc(C)cc4)c(C#N)c2=S)C(=O)CC(C)(C)C3)C(OC(C)=O)C(OC(C)=O)C1OC(C)=O (stereo not given)	95.3 µM
CN1CCN(Cn2nc(COc3ccccc3Cl)n(/N=C/c3ccc(-c4ccc(Cl)cc4Cl)o3)c2=S)CC1	89.9 µM
Cc1nnc2n1N=C(c1cc(F)c(Cl)cc1Cl)/C(=C/c1ccc(-c3ccc([N+](=O)[O-])cc3)o1)S2	> 100 µM
O=C1c2cc(Br)ccc2-c2ccc3c4ccc5c6c(ccc(c7ccc1c2c73)c64)C(=O)c1cc(Br)ccc1-5	> 100 µM
NCCCCCC(CCN)SCC1OC(n2cnc3c(N)ncnc32)C(O)C1O (stereo not given)	> 1500 µM
C=CCN1C(=O)CC2[C@@H]3CCc4cc(O)ccc4C3CC[C@]2(C)C1=O (stereo not given in full)	> 10 µM
CCCCNC(=O)OCCN=c1c2ccccc2ccc2ccccc12	> 100 µM
O=C1C=CC2(C=C1)O[C@H](COCc1ccccc1)[C@@H](COCc1ccccc1)O2	> 100 µM
CSC(=S)CC(O)[C@@H]1CC2c3ccccc3C1c1ccccc12 (stereo not given in full)	30.4 µM
O=C1C(Cl)C(c2cccc([N+](=O)[O-])c2)N1n1cnc2ccccc2c1=O (stereo not given)	> 100 µM
CC1(OCc2ccccc2)C(=O)N2C1NCC2(C)C (stereo not given)	> 100 µM
O=[N+]([O-])c1ccc(C2=NCCO2)cc1	> 100 µM
C/C(=N/NC(=O)c1ccccc1S(N)(=O)=O)C(CN1CCCCC1)C(C1=C(O)C2C=CC=CC2OC1=O)c1ccccc1 (stereo not given)	> 100 µM
C=CC(=O)NCCC(=O)OCn1cc(F)c(=O)[nH]c1=O	> 100 µM
O=C(/C=C/c1ccccc1)NC1C=Nc2ccc([N+](=O)[O-])cc2NC1=O (stereo not given)	> 100 µM
O=C1c2ccccc2-c2nnc3c(c21)Cc1ccccc1C3	> 10 µM
